- TESTED TARGET: T1, 6xHis‐tagged GABARAP‐L1 (human, UniProt Q9H0R8 1-117)
- T1 construct: GABARAP-L1, human; also called His6‐GABARAP‐L1; source: E. coli, isolated
- T1 sequence (Q9H0R8 whole entry, looked up): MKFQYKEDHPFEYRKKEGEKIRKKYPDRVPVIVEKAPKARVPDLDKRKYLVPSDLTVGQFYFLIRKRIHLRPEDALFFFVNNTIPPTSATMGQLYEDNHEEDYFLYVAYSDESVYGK
- ASSAY EXPLANATION: ELISA; called peptide array: biotinylated peptides immobilised on streptavidin-coated 96-well plates; 1 μM His6-mATG8 in PBS, 0.1% Tween-20, 1% BSA, 1 h, 8°C; anti-His-HRP, TMB, absorbance at 450 nm
- CONDITION PARAMETERS: both partners purified
Ends that are not written are not given here.

{"columns": ["BINDER", "binding result"],
 "data": [
  ["EDEWCNVQY (peptide, UniProt Q9Y4G2 632-640, looked up, also: biotinylated, PLEKHM1 LIR; source: bought: JPT (biotinylated peptide)) [PLEKHM1‐LIR V636C peptide (biotinylated 9-mer)]", "binds"],
  ["EDEWVLVQY (peptide, UniProt Q9Y4G2 632-640, looked up, also: biotinylated, PLEKHM1 LIR; source: bought: JPT (biotinylated peptide)) [PLEKHM1‐LIR N637L peptide (biotinylated 9-mer)]", "binds"],
  ["EDEWVKVQY (peptide, UniProt Q9Y4G2 632-640, looked up, also: biotinylated, PLEKHM1 LIR; source: bought: JPT (biotinylated peptide)) [PLEKHM1‐LIR N637K peptide (biotinylated 9-mer)]", "binds"],
  ["EDEWVWVQY (peptide, UniProt Q9Y4G2 632-640, looked up, also: biotinylated, PLEKHM1 LIR; source: bought: JPT (biotinylated peptide)) [PLEKHM1‐LIR N637W peptide (biotinylated 9-mer)]", "binds"],
  ["EDEWVYVQY (peptide, UniProt Q9Y4G2 632-640, looked up, also: biotinylated, PLEKHM1 LIR; source: bought: JPT (biotinylated peptide)) [PLEKHM1‐LIR N637Y peptide (biotinylated 9-mer)]", "binds"],
  ["EDEWVNIQY (peptide, UniProt Q9Y4G2 632-640, looked up, also: biotinylated, PLEKHM1 LIR; source: bought: JPT (biotinylated peptide)) [PLEKHM1‐LIR V638I peptide (biotinylated 9-mer)]", "binds"],
  ["EDEWVGVQY (peptide, UniProt Q9Y4G2 632-640, looked up, also: biotinylated, PLEKHM1 LIR; source: bought: JPT (biotinylated peptide)) [PLEKHM1‐LIR N637G peptide (biotinylated 9-mer)]", "binds"]
]}
